# Test system: Staphylococcus aureus
# Assay protocol: Antibacterial activity against methicillin resistant Staphylococcus aureus USA300 FPR3757 assessed as inhibition of bacterial growth incubated for 20 to 24 hrs by microbroth serial dilution method
# Type: functional
# Assay conditions: time 20-24 hrs, read-out: MIC100

Molecule	MIC [µg/mL]
C=C[C@]1(C)C[C@@H](OC(=O)Cn2cc(-c3ccc(C(O)c4ccc5c(N)ncnn45)nc3)nn2)[C@]2(C)[C@H](C)CC[C@]3(CCC(=O)[C@H]32)[C@@H](C)[C@@H]1O (stereo not given in full)	0.03
C=C[C@]1(C)C[C@@H](OC(=O)Cn2cc(-c3ccc(Cn4ccc(=O)[nH]c4=O)cc3)nn2)[C@]2(C)[C@H](C)CC[C@]3(CCC(=O)[C@H]32)[C@@H](C)[C@@H]1O	0.12
C=C[C@]1(C)C[C@@H](OC(=O)Cn2cc(-c3ccc(NC(=O)c4ccccc4)cc3)nn2)[C@]2(C)[C@H](C)CC[C@]3(CCC(=O)[C@H]32)[C@@H](C)[C@@H]1O	4
C=C[C@]1(C)C[C@@H](OC(=O)Cn2cc(-c3cccc(C(=O)Nc4ncnc5[nH]cnc45)c3)nn2)[C@]2(C)[C@H](C)CC[C@]3(CCC(=O)[C@H]32)[C@@H](C)[C@@H]1O	0.12
C=C[C@]1(C)C[C@@H](OC(=O)Cn2cc(-c3cncc(NC(=O)c4ccc(OC)cc4)c3)nn2)[C@]2(C)[C@H](C)CC[C@]3(CCC(=O)[C@H]32)[C@@H](C)[C@@H]1O	0.06
C=C[C@]1(C)C[C@@H](OC(=O)Cn2cc(-c3ccc(C(O)c4ccc5c(N)ncnn45)cc3)nn2)[C@]2(C)[C@H](C)CC[C@]3(CCC(=O)[C@H]32)[C@@H](C)[C@@H]1O (stereo not given in full)	0.06
C=C[C@]1(C)C[C@@H](OC(=O)Cn2cc(-c3ccc(Cn4ccc(N)nc4=O)nc3)nn2)[C@]2(C)[C@H](C)CC[C@]3(CCC(=O)[C@H]32)[C@@H](C)[C@@H]1O	8
C=C[C@]1(C)C[C@@H](OC(=O)Cn2cc(-c3cccc(Oc4ncnc5[nH]cnc45)c3)nn2)[C@]2(C)[C@H](C)CC[C@]3(CCC(=O)[C@H]32)[C@@H](C)[C@@H]1O	0.12
C=C[C@]1(C)C[C@@H](OC(=O)Cn2cc(-c3ccc(Cn4cncc4CO)nc3)nn2)[C@]2(C)[C@H](C)CC[C@]3(CCC(=O)[C@H]32)[C@@H](C)[C@@H]1O	2
C=C[C@]1(C)C[C@@H](OC(=O)Cn2cc(-c3cncc(NC(=O)c4cnc(OC)cn4)c3)nn2)[C@]2(C)[C@H](C)CC[C@]3(CCC(=O)[C@H]32)[C@@H](C)[C@@H]1O	0.06

Hello, the source for this data is ChEMBL document CHEMBL6134887, in case you need it.
